Compiled IC50 measurements on MAP kinase-interacting serine/threonine-protein kinase 2 (Homo sapiens, UniProt Q9HBH9) taken from the literature.

Known IC50 results, listed for orientation:
[
  {
    "Compound": "CCN(CC)C(=O)[C@@H](C)Oc1cc(F)ccc1Nc1ncnc2cc(N=S(C)(C)=O)cc(C)c12",
    "IC50": "8 nM"
  },
  {
    "Compound": "Cc1cc(N=S2(=O)CCCC2)cc2ncnc(Nc3ccc(F)cc3O[C@H](C)C(=O)N(C)Cc3ccccc3)c12",
    "IC50": "9 nM"
  },
  {
    "Compound": "CC(Oc1ncccc1Nc1ncnc2cc(N=S(C)(C)=O)cc(F)c12)C(F)(F)F (stereo not drawn)",
    "IC50": "8 nM"
  },
  {
    "Compound": "Cc1cc(N=S(C)(C)=O)cc2ncnc(Nc3ccc(Cl)cc3O[C@H](C)C(=O)N[C@@H](C)C(F)(F)F)c12",
    "IC50": "2 nM"
  },
  {
    "Compound": "Cc1cc(N=S(C)(C)=O)cc2ncnc(Nc3ccc(F)cc3OC(C)C#N)c12 (stereo not drawn)",
    "IC50": "3 nM"
  }
]

Could I get IC50 for every one of these entries?
1. Cc1cc(N=S(C)(C)=O)cc2ncnc(Nc3ccc(F)cc3O[C@H](C)C(=O)NCC#N)c12
2. Cc1cc(N=S(C)(=O)C2CC2)cc2ncnc(Nc3ccc(F)cc3O[C@H](C)C(=O)NCC(F)(F)F)c12 (stereo partly drawn)
3. CCNC(=O)[C@@H](C)Oc1cc(F)ccc1Nc1ncnc2cc(N=S(C)(C)=O)cc(C)c12
4. Cc1cc(N=S(C)(C)=O)cc2ncnc(Nc3ccc(F)cc3O[C@H](C)C(=O)N(C)C)c12
5. Cc1cc(N=S2(=O)CCCC2)cc2ncnc(Nc3ccc(F)cc3O[C@H](C)C(=O)N(C)CCc3ccccc3)c12
6. Cc1c(C(=O)NCCCN(C)C)sc2ncnc(Nc3ccc(C(F)(F)F)nc3OC3CCOCC3)c12
7. CCC(=O)NC[C@@H](C)Oc1cc(F)ccc1Nc1ncnc2cc(N=S(C)(C)=O)cc(C)c12

1. 1 nM
2. 5 nM
3. 3 nM
4. 5 nM
5. 10 nM
6. 560 nM
7. 56 nM

Go through the items and report each one's IC50.
1. Cc1c2n(c(=O)c3[nH]c4cc(N)ncc4c(=O)c13)C(C)(c1cccc(Cl)c1)NC2=O (stereo not drawn)
2. C[C@@H](Oc1cc(F)ccc1Nc1ncnc2cc(N=S3(=O)CCC3)cc(F)c12)C(=O)NCC(F)(F)C(F)(F)F
3. COc1cc(N=S(C)(C)=O)cc2ncnc(Nc3ccc(F)cc3OC(C)c3cc(C)no3)c12 (stereo not drawn)

1. 10 to 100 nM
2. 2 nM
3. 2 nM
